# Tested on: HTT mRNA
# assay-text: RT-qPCR splicing assay, HTT mRNA canonical (CJ) and alternative (AJ) junction
# Format: cell-based, human
# details: Homo sapiens, HTT canonical junction mRNA, RT-qPCR; read-out: HTT CJ (decrease in CJ mRNA levels, IC50)
pIC50: −log10 of the molar value.
recorded-endpoint: pIC50

These solved cases illustrate the format of a correct answer.
C[C@@H]1CC(c2ccc3nc(-c4cc5cn(C)nc5cc4O)ccc3n2)C[C@H](C)N1 (stereo partly shown)	6.00 to 7.00
Cc1nc2c(F)c(O)c(-c3ccc4nc(N5CCC(NC(C)C)C5)ccc4n3)cc2o1 (stereo not shown)	> 7.00
Cc1c(O)c(-c2ccc3nc(N4CC[C@H](NC5CC5)C4)ccc3n2)cc2cn(C)nc12	> 7.00
Cc1nc2c(C)c(O)c(-c3ccc4nc(N5CC[C@@H](N[C@H]6C[C@H](F)C6)C5)ccc4n3)cc2o1 (single isomer, unassigned)	> 7.00
Cn1cc2cc(-c3ccc4nc(N5CCC(NC67CC(C6)C7)C5)ccc4n3)c(O)cc2n1 (stereo not shown)	5.00 to 6.00

input: Which pIC50 is reported for this molecule? `Cc1nc2cc(O)c(-c3ccc4nc(N5CC[C@@H](NC6CCC6)C5)ccc4n3)cc2o1`
output: > 7.00

input: Which pIC50 is reported for this molecule? `Cn1cc2cc(-c3ccc4nc(N5CC[C@H](NCC(F)(F)F)C5)ccc4n3)c(O)cc2n1`
output: 5.00 to 6.00

###

# System: MYB
# assay-text: HiBiT protein abundance assay, MYB (K562 HiBiT knock-in)
# Type: cell-based, human
# details: HiBiT knock-in K562 cells, 24 hours, top dose 10 μM
Listing of recorded IC50 by entry.

Cc1nc2c(C)c(O)c(-c3ccc4nc(N5CC[C@H](N[C@H]6C[C@H](F)C6)C5)ccc4n3)cc2o1 (single isomer, unassigned) [Compound 351]	< 100 nM
Cc1c(O)c(-c2ncc3nc(C4CCNC4)ccc3n2)cc2cn(C)nc12 (stereo not shown) [Compound 397, trifluoroacetic acid]	100 to 1000 nM
Cn1cc2cc(-c3ccc4nc(N5CC[C@@H](NC(C)(C)C)C5)ccc4n3)c(O)c(F)c2n1 (single isomer, unassigned) [Compound 391]	< 100 nM

Okay, now this compound:
input: Which IC50 is reported for this compound? Cc1c(O)c(-c2ccc3nc(N4CCC(NC(C)(C)C)C4)ccc3n2)cc2cn(C)nc12 (stereo not shown) [Compound 191]
output: < 100 nM

###

# Tested on: HTT mRNA
# assay-text: RT-qPCR splicing assay, HTT mRNA canonical (CJ) and alternative (AJ) junction
# Type: cell-based, human
# details: Homo sapiens, HTT canonical junction mRNA, RT-qPCR; read-out: HTT CJ (decrease in CJ mRNA levels, IC50)
recorded-endpoint: IC50

Cc1c(O)c(-c2ccc3nc(C4CCNCC4)ccc3n2)cc2cn(C)nc12	< 100 nM
Cc1nc2cc(O)c(-c3ccc4nc(C5CCNCC5)ccc4n3)cc2s1	1000 to 10000 nM
Cc1nc2c(F)c(O)c(-c3ccc4nc(N5CC[C@@H](NC6(C)CC6)C5)ccc4n3)cc2o1 (stereo in doubt)	< 100 nM
Cc1c(O)c(-c2ncc3cc(N4CCNCC4)ccc3n2)cc2cn(C)nc12	100 to 1000 nM
CN[C@@H]1CCN(c2ccc3nc(-c4cc5cn(C)nc5c(C)c4O)ncc3c2)C1 (single isomer, unassigned)	< 100 nM
Cc1c(O)c(-c2nc(N(C)C)c3cc(N4CCNCC4)ccc3n2)cc2cn(C)nc12	> 10000 nM
Cn1cc2cc(-c3ccc4nc(C5CCNCC5)ccc4n3)c(C(F)F)cc2n1	> 10000 nM

input: Which IC50 is reported for this molecule? Cc1cc(-c2ccc3nc(N4CCC(NC(C)(C)C)C4)ccc3n2)nc2cn(C)nc12 (centres unmarked)
output: 1000 to 10000 nM
